System: Vero E6 infected with SARS-CoV-2
Experiment: inhibition of SARS-CoV-2 cytopathic effect; higher = more antiviral protection, active = above 15
Details: 100 nM; 48 h
readout-label: inhibition of SARS-CoV-2 cytopathic effect (%)
Value expressed in %; do not type the unit.

Please fill in: inhibition of SARS-CoV-2 cytopathic effect reported for CCCC(C)NC(=O)c1ccc(Cl)c(Cl)c1 (stereo not drawn) = 1.26

Please fill in: inhibition of SARS-CoV-2 cytopathic effect reported for Cn1cc(C(=O)OCC2CCN(CCNS(C)(=O)=O)CC2)c2ccccc21 = 5.3

Please fill in: inhibition of SARS-CoV-2 cytopathic effect reported for Cc1nc(-c2cccnc2)sc1C(=O)Nc1ccccc1-c1cn2c(CN3CCOCC3)csc2n1 = 1.74

====

For each record, write down the corresponding inhibition of SARS-CoV-2 cytopathic effect.
System: Vero E6 infected with SARS-CoV-2
Assay: inhibition of SARS-CoV-2 cytopathic effect; higher = more antiviral protection, active = above 15
Details: 10000 nM; 48 h
Value expressed in %; do not type the unit.

Please fill in: inhibition of SARS-CoV-2 cytopathic effect reported for CC=C1C(=O)C[C@H]2[C@@H]3CCC4=CC(=O)CC[C@]4(C)[C@H]3CC[C@]12C = 4.3

Please fill in: inhibition of SARS-CoV-2 cytopathic effect reported for O=P(O)(O)CN(CCN(CP(=O)(O)O)CP(=O)(O)O)CP(=O)(O)O = -1.39

Please fill in: inhibition of SARS-CoV-2 cytopathic effect reported for O=C1C(CC[S+]([O-])c2ccccc2)C(=O)N(c2ccccc2)N1c1ccccc1 (stereo not drawn) = 0.32

====

System: Vero E6 infected with SARS-CoV-2
Test: SARS-CoV-2 infection rate relative to infected DMSO; higher = more infection, active = 60 or less
Conditions: 24 h
readout-label: SARS-CoV-2 infection rate (%)
Value expressed in %; do not type the unit.

Please fill in: SARS-CoV-2 infection rate reported for Cc1ccc(-c2cn3c4c(sc3n2)CCCC4)cc1 [pifithrin-cyclic] (10 µM) = 106

Please fill in: SARS-CoV-2 infection rate reported for Cc1cc(C)c(S(=O)(=O)Nc2ccccc2C(F)(F)F)c(C)c1 (10 µM) = 113

Please fill in: SARS-CoV-2 infection rate reported for COc1cc(C[C@H]2C(=O)OC[C@@H]2Cc2ccc(OC)c(OC)c2)ccc1O [arctigenin] (10 µM) = 108

Please fill in: SARS-CoV-2 infection rate reported for Cn1nnc(-c2ccc(-c3ccc(N4C[C@H](COP(=O)(O)O)OC4=O)cc3F)cn2)n1 [tedizolid-phosphate] (10 µM) = 88

Please fill in: SARS-CoV-2 infection rate reported for O/N=C/c1ccc(-c2ccc(O)c(F)c2)c(Cl)c1O (10 µM) = 76.5

Please fill in: SARS-CoV-2 infection rate reported for CC(=O)NC1N=C(c2ccccc2)c2ccccc2NC1=O (stereo not given) (10 µM) = 105

Please fill in: SARS-CoV-2 infection rate reported for CC(=O)O[C@@H]1C[C@H]2C(C)(C)C(=O)C=C[C@]2(C)[C@H]2CC[C@@]3(C)[C@H](c4ccoc4)OC(=O)[C@H]4O[C@]43[C@@]21C [gedunin] (10 µM) = 106

Please fill in: SARS-CoV-2 infection rate reported for Cc1[nH]c(=O)c(C#N)cc1-c1ccncc1 [milrinone] (10 µM) = 93.5

Please fill in: SARS-CoV-2 infection rate reported for CN(C)C(=O)n1nnnc1Cc1ccc(-c2ccccc2)cc1 (0.833333 µM) = 85

Please fill in: SARS-CoV-2 infection rate reported for CC(=O)OC[C@H](N)C(=O)O [O-acetyl-L-serine] (10 µM) = 88
